Answer each item with its documented O.D. (X - B).
- TARGET_OF_ASSAY: L-arabinose isomerase (Bacillus amyloliquefaciens)
- Construct: crude enzyme
- Sequence (A0A9P1JJ98 1-499): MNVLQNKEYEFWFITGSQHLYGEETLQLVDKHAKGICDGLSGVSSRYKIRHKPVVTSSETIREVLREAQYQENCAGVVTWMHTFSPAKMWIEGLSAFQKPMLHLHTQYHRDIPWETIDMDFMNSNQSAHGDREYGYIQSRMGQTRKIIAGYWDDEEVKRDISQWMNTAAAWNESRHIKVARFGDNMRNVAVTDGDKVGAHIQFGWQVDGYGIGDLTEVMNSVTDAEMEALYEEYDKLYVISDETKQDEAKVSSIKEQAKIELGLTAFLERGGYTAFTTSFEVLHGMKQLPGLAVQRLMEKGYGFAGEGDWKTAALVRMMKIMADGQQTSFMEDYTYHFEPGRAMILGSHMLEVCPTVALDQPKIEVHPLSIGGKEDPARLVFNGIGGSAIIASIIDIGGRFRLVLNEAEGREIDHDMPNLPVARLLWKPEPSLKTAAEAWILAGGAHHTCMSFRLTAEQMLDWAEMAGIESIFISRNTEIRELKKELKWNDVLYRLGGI
- PROTOCOL_DESCRIPTION: L-arabinose isomerase bioconversion of D-galactose to D-tagatose, enzyme from Bacillus amyloliquefaciens IFO 3022
- Assay type: biochemical
- RUN_PARAMETERS: 1.67 M D-galactose, 0.005 M metallic ion, 60° C., 120 min.; O.D. 540, dilution 200×
Answers are plain numbers.

Here's what some known entries look like.
[[record]]
smiles_code = "[Fe+2]"
result = 0.4438

[[record]]
smiles_code = "[Mn+2]"
result = 0.7610

[[record]]
smiles_code = "[Mg]"
result = 0.1048

[[record]]
smiles_code = "[Fe+3]"
result = 0.3817

[[record]]
smiles_code = "[Zn+2]"
result = 0.1596

[[record]]
smiles_code = "[Co+2]"
result = 0.0970


Task: Param item = `[Ca]` ; retrieve measured O.D. (X - B).
Result: 0.1802
